molecular target: Adenosine receptor A2a (Homo sapiens, UniProt P29274); experiment: Percent inhibition of [3H]-ZM241385 binding to human adenosine A2A receptor expressed in CHO cells at 10 uM
Sequence (P29274 whole entry): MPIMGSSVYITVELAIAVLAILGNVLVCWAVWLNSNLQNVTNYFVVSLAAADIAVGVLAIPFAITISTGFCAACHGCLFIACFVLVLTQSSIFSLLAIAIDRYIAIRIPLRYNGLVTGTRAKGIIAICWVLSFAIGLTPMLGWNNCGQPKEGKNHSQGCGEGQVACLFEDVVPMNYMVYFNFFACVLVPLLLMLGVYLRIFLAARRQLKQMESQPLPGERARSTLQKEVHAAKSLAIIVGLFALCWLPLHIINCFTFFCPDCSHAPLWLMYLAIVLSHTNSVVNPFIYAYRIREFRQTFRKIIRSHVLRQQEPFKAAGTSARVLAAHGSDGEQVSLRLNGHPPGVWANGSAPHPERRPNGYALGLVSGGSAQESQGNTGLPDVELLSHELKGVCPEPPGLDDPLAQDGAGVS
endpoint.label: inhibition (%)

> print(dat)
                                item.smiles                             target.entity  endpoint.label  reported
1  c1nc2nc(Nc3ccc(N4CCOCC4)cc3)[nH]c(NC3CCCC3)c-2n1  Adenosine receptor A2a (Homo sapiens, UniProt P29274)      inhibition        20
2  c1nc2nc(Nc3ccc(N4CCOCC4)cc3)[nH]c(NC3CCCCCC3)c-2n1  Adenosine receptor A2a (Homo sapiens, UniProt P29274)      inhibition        38
3  c1nc2nc(Nc3ccc(N4CCOCC4)cc3)nc(NC3CC3)c2[nH]1  Adenosine receptor A2a (Homo sapiens, UniProt P29274)      inhibition        25

[a] c1ccc(CNc2nc(NC3CCCCC3)c3[nH]cnc3n2)cc1
[b] c1ccc(-c2ccc(Nc3nc4ncnc-4c(NC4CCCCC4)[nH]3)cc2)cc1
Determine, for a and b , which has the greater value of inhibition. Reply with the label of the item you choose.
a
